# System Under Test: T1, zebrafish Tac3ra (tac3 receptor a, NKB receptor) (zebrafish)
# T1 chain: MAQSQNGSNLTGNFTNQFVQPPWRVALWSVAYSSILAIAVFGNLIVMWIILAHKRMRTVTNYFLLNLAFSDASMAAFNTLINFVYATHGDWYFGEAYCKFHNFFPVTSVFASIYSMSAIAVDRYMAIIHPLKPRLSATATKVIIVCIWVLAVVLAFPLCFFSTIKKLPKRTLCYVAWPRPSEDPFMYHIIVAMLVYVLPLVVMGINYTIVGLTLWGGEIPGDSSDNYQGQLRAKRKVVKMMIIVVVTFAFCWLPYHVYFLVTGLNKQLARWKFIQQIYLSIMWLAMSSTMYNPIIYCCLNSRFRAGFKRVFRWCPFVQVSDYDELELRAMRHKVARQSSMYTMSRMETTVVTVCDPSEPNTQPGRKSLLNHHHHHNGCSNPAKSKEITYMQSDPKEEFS
# Assay Comment: cell-based or functional assay
*1 amine or outer side, *2 acyl side, *3 side chain or, on linkers, in order; H or OH if unused. Where no end group is shown, it is not given here. [ ]: non-standard residue; d: D form. NMeF = CN[C@@H](Cc1ccccc1)C(=O)O; Suc = O=C(CCC(=O)[*:2])[*:1]
Measure Name: EC50, SRE-Luc reporter (PKC activation), transfected COS-7 cells (nM)
Give bare numbers, in nM.

Give one value of EC50, SRE-Luc reporter (PKC activation), transfected COS-7 cells per listed binder.
1. EMHDIFVGLM-NH2 [Zebrafish Tac3a peptide, neurokinin Ba (EMHDIFVGLM-NH2)]
2. YNDIDYDSFVGLM-NH2 [Zebrafish Tac3f peptide, neurokinin F (YNDIDYDSFVGLM-NH2)]
3. STGINREAHLPFRPNMNDIFVGLL-NH2 [Zebrafish Tac3b peptide, neurokinin Bb (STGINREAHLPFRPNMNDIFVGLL-NH2)]
4. DMHDFFVGLM-NH2 [human NKB (neurokinin B)]
5. Suc-DF[NMeF]GLM-NH2 [Senktide (Succ-Asp-Phe-N(Me)Phe-Gly-Leu-Met-NH2)]

Output:
[0.5, 0.54, 8.96, 2.2, 2.67]

Values from patent US20150072933A1
